experimentalTarget: Translocator protein (Rattus norvegicus)
Sequence (P16257 whole entry, looked up): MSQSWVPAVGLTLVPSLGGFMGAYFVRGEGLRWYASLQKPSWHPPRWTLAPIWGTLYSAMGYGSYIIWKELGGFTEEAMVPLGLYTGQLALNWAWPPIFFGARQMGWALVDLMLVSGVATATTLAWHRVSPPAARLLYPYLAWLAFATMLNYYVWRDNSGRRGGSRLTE
pKi: −log10 of the molar value.
parameterMeasured: pKi

> print(dat)
                            structurestring  experimentalvalue
1  O=C(NCCCCCCNc1ccc([N+](=O)[O-])c2nonc12)C(=O)c1c(-c2ccccc2)[nH]c2ccc(N=C=S)cc12               7.42

* * *

In this section we review reported Kd values for a set of compounds.
experimentalTarget: Translocator protein (Rattus norvegicus)
protocolDetails: Irreversible binding affinity to TSPO in rat kidney mitochondrial membrane
parameterMeasured: Kd (nM)

> print(dat)
                            structurestring                        experimentaltarget  unitname  experimentalvalue
1  O=C(NCCCCCCNc1ccc([N+](=O)[O-])c2nonc12)C(=O)c1c(-c2ccccc2)[nH]c2ccc(N=C=S)cc12  Translocator protein (Rattus norvegicus)        nM               8.31
2  CCCCCCN(CCCCCC)C(=O)C(=O)c1c(-c2ccccc2)[nH]c2ccc(N=C=S)cc12  Translocator protein (Rattus norvegicus)        nM               5.07
3  CCCN(CCC)C(=O)C(=O)c1c(-c2ccccc2)[nH]c2ccc(N=C=S)cc12  Translocator protein (Rattus norvegicus)        nM               3.17
